- Tested system: human recombinant kinase full-length AKT1 E17K (Homo sapiens, UniProt P31749, E17K)
- Construct: Purified human recombinant kinase full-length AKT1 E17K was expressed in insect cells
- Sequence (P31749 whole entry E17K): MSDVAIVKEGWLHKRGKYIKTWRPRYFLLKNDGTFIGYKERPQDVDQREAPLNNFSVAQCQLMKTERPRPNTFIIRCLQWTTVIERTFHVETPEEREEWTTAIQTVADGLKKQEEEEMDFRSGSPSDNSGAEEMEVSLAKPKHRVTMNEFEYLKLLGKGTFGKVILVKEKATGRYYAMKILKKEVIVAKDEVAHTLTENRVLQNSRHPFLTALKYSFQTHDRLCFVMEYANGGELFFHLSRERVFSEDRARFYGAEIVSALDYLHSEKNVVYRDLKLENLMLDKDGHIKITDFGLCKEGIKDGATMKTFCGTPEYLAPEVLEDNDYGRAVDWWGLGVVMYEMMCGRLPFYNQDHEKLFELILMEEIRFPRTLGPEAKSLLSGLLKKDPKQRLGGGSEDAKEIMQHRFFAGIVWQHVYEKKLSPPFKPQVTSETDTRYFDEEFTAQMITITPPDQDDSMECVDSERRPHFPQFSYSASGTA
- Test summary: AKT1 E17K kinase assay (TR-FRET, Lance)
- Measurement context: 0.6 nM AKT1 E17K, 50 nM Ulight-CREBtide, either 50 μM ATP or 2 mM ATP (not specified which), 60 min at RT
A collection of compounds and their measured IC50

Look over these answered cases.
# Compound, IC50
rows = [
    ("C[C@H](c1ccc(C(=O)O)cc1F)N1CC(c2ccc(-n3c(-c4cccnc4N)nc4ccc(-c5ccccc5)nc43)cc2)C1", "50 to 200 nM"),
    ("Nc1ncccc1-c1nc2ccc(-c3ccccc3)nc2n1-c1ccc(C(=O)Nc2ccc(C(=O)O)cc2F)cc1", "< 50 nM"),
    ("Nc1ncccc1-c1nc2ccc(-c3ccccc3)nc2n1-c1ccc(C2CN(C(=O)c3ccc(C(=O)O)cc3)C2)cc1", "< 50 nM"),
    ("C[C@@H](c1ccc(C(=O)O)cc1)N1CC(c2ccc(-n3c(-c4cccnc4N)nc4ccc(-c5ccccc5)nc43)cc2)C1 (single isomer, unassigned)", "> 500 nM"),
    ("Nc1ncccc1-c1nc2ccc(-c3ccccc3)nc2n1-c1ccc(NC(=O)c2cccc(C(=O)O)c2)nc1", "< 50 nM"),
]

*Q* Fill in: IC50 of "Nc1ncccc1-c1nc2ccc(-c3ccccc3)nc2n1-c1ccc(NC(=O)c2cccc(CC(=O)O)c2)c(F)c1" is ___
*A* 50 to 200 nM

---

A collection of compounds and their measured IC50
- Tested system: human recombinant kinase full-length wildtype AKT1 (Homo sapiens, UniProt P31749)
- Construct: Purified human recombinant kinase full-length wildtype AKT1 was expressed in insect cells
- Test summary: AKT1 kinase assay (wildtype, TR-FRET, Lance)
- Measurement context: 0.6 nM wildtype AKT1, 50 nM Ulight-CREBtide, either 50 μM ATP or 2 mM ATP (not specified which), 60 min at RT

# Compound, IC50
records = [
    ("Nc1ncccc1-c1nc2ccc(C(F)(F)F)cc2n1-c1ccc(CNC(=O)c2cccc(CC(=O)O)c2)cc1 [Compound 107]", "> 500 nM"),
    ("Nc1ncccc1-c1nc2ccc(-c3ccc(F)cc3)nc2n1-c1ccc(NC(=O)c2ccc(C(=O)O)cc2)nc1 [Compound 109]", "< 500 nM"),
    ("Nc1ncccc1-c1nc2ccc(-c3ccccc3)nc2n1-c1ccc(NC(=O)c2cccc(C(=O)O)c2F)cc1 [Compound 55]", "< 500 nM"),
]

Alright, here's another compound for you.
*Q* Fill in: IC50 of Nc1ncccc1-c1nc2ccc(-c3ccccc3)nc2n1-c1ccc(C(=O)NCc2cccc(CC(=O)O)c2)cc1 [Compound 52] is ___
*A* > 500 nM

---

A collection of compounds and their measured pIC50
- Tested system: human recombinant kinase full-length AKT1 E17K (Homo sapiens, UniProt P31749, E17K)
- Construct: Purified human recombinant kinase full-length AKT1 E17K was expressed in insect cells
- Test summary: AKT1 E17K kinase assay (TR-FRET, Lance)
- Measurement context: 0.6 nM AKT1 E17K, 50 nM Ulight-CREBtide, either 50 μM ATP or 2 mM ATP (not specified which), 60 min at RT
pIC50: −log10 of the molar value.

Look over these answered cases.
# Compound, Tested system, pIC50
records = [
    ("Nc1ncccc1-c1nc2cc(-c3ccc(NC(=O)c4ccccc4)cc3)cnc2n1-c1ccc(CNC(=O)c2cccc(CC(=O)O)c2)cc1", "human recombinant kinase full-length AKT1 E17K (Homo sapiens, UniProt P31749, E17K)", "> 7.30"),
    ("COC(=O)Cc1ccc(C(=O)NCc2ccc(-n3c(-c4cccnc4N)nc4cc(-c5cccnc5)cnc43)cc2)cc1", "human recombinant kinase full-length AKT1 E17K (Homo sapiens, UniProt P31749, E17K)", "< 6.30"),
    ("CC(c1ccc(C(=O)O)cc1)N1CCCC(c2ccc(-n3c(-c4cccnc4N)nc4ccc(-c5ccccc5)nc43)cc2)C1 (stereo not drawn)", "human recombinant kinase full-length AKT1 E17K (Homo sapiens, UniProt P31749, E17K)", "< 6.30"),
    ("COC(=O)CCc1ccc(C(=O)NCc2ccc(-n3c(-c4cccnc4N)nc4cc(-c5cccnc5)cnc43)cc2)cc1", "human recombinant kinase full-length AKT1 E17K (Homo sapiens, UniProt P31749, E17K)", "< 6.30"),
    ("COC(=O)c1ccc(C(=O)N2CC(c3ccc(-n4c(-c5cccnc5N)nc5ccc(-c6ccccc6)nc54)cc3)C2)cc1", "human recombinant kinase full-length AKT1 E17K (Homo sapiens, UniProt P31749, E17K)", "< 6.30"),
]

Alright, here's another compound for you.
*Q* Give human recombinant kinase full-length AKT1 E17K (Homo sapiens, UniProt P31749, E17K) pIC50 for "C[C@H](c1ccc(C(=O)O)cc1C(F)(F)F)N1CC(c2ccc(-n3c(-c4cccnc4N)nc4ccc(-c5ccccc5)nc43)cc2)C1"
*A* 6.70 to 7.30

---

A collection of compounds and their measured pIC50
- Tested system: human recombinant kinase full-length AKT1 E17K (Homo sapiens, UniProt P31749, E17K)
- Construct: Purified human recombinant kinase full-length AKT1 E17K was expressed in insect cells
- Test summary: AKT1 E17K kinase assay (TR-FRET, Lance)
- Measurement context: 0.6 nM AKT1 E17K, 50 nM Ulight-CREBtide, either 50 μM ATP or 2 mM ATP (not specified which), 60 min at RT
pIC50: −log10 of the molar value.

# Compound, Tested system, Assay value
rows = [
    ("Nc1ncccc1-c1nc2ccc(-c3ccccc3)nc2n1-c1ccc(NC(=O)c2ccc(C(=O)O)cc2)nc1", "human recombinant kinase full-length AKT1 E17K (Homo sapiens, UniProt P31749, E17K)", "> 7.30"),
    ("Nc1ncccc1-c1nc2ccc(-c3ccccc3)nc2n1-c1ccc(NC(=O)c2ccc(C(=O)O)nc2)nc1", "human recombinant kinase full-length AKT1 E17K (Homo sapiens, UniProt P31749, E17K)", "> 7.30"),
    ("Nc1ncccc1-c1nc2ccc(-c3ccccc3)nc2n1-c1ccc(CNC(=O)c2cccc(CC(=O)O)c2)nc1", "human recombinant kinase full-length AKT1 E17K (Homo sapiens, UniProt P31749, E17K)", "< 6.30"),
]

*Q* Fill in: pIC50 of CC(c1ccc(C(=O)O)cc1)N1CC(c2ccc(-n3c(-c4cccnc4N)nc4ccc(-c5ccccc5)nc43)cc2F)C1 (centres unmarked) is ___
*A* 6.30 to 6.70

*Q* Fill in: pIC50 of "Nc1ncccc1-c1nc2ccc(-c3ccccc3)cc2n1-c1ccc(CNC(=O)c2cccc(CC(=O)O)c2)cc1" is ___
*A* 6.70 to 7.30

*Q* Fill in: pIC50 of "Nc1ncccc1-c1nc2ccc(-c3ccccc3)nc2n1-c1ccc(C2CN(Cc3cc(O)c(C(=O)O)c(F)c3)C2)cc1" is ___
*A* > 7.30

---

- Tested system: human recombinant kinase full-length AKT1 E17K (Homo sapiens, UniProt P31749, E17K)
- Construct: Purified human recombinant kinase full-length AKT1 E17K was expressed in insect cells
- Test summary: AKT1 E17K kinase assay (TR-FRET, Lance)
- Measurement context: 0.6 nM AKT1 E17K, 50 nM Ulight-CREBtide, either 50 μM ATP or 2 mM ATP (not specified which), 60 min at RT
pIC50: −log10 of the molar value.
Property: pIC50

Look over these answered cases.
# Molecule, pIC50
data = [
    ("Nc1ncccc1-c1nc2cccnc2n1-c1ccc(CNC(=O)c2cccc(CC(=O)O)c2)cc1 [Compound 101]", "< 6.30"),
    ("Nc1ncccc1-c1nc2ccc(-c3ccccc3)nc2n1-c1ccc(CNC(=O)c2cc(C(=O)O)ccc2F)cc1 [Compound 23]", "> 7.30"),
    ("Nc1ncccc1-c1nc2cc(-c3ccccc3)cnc2n1-c1ccc(CNC(=O)c2cccc(CC(=O)O)c2)cc1 [Compound 82]", "6.30 to 6.70"),
    ("Cc1nc(NC(=O)c2ccc(C(=O)O)cc2F)ccc1-n1c(-c2cccnc2N)nc2ccc(-c3ccccc3)nc21 [Compound 148]", "6.70 to 7.30"),
]

*Q* Give human recombinant kinase full-length AKT1 E17K (Homo sapiens, UniProt P31749, E17K) pIC50 for CC(C)c1ccc2nc(-c3cccnc3N)n(-c3ccc(C4CN(Cc5ccc(C(=O)O)cc5)C4)cc3)c2n1 [Compound 173]
*A* < 6.30

---

A collection of molecules and their measured IC50
- Tested system: human recombinant kinase full-length AKT1 E17K (Homo sapiens, UniProt P31749, E17K)
- Construct: Purified human recombinant kinase full-length AKT1 E17K was expressed in insect cells
- Test summary: AKT1 E17K kinase assay (TR-FRET, Lance)
- Measurement context: 0.6 nM AKT1 E17K, 50 nM Ulight-CREBtide, either 50 μM ATP or 2 mM ATP (not specified which), 60 min at RT

Look over these answered cases.
# Molecule, IC50
rows = [
    ("Nc1ncccc1-c1nc2ccc(-c3ccccc3)nc2n1-c1ccc(CNC(=O)c2ccc(CC(=O)O)cc2)cc1 [Compound 30]", "50 to 200 nM"),
    ("Cc1cc(C(=O)Nc2ccc(-n3c(-c4cccnc4N)nc4ccc(-c5ccccc5)nc43)nc2C)ccc1C(=O)O [Compound 181]", "> 500 nM"),
    ("Nc1ncccc1-c1nc2ccc(OC(F)(F)F)cc2n1-c1ccc(NC(=O)c2ccc(C(=O)O)cc2)nc1 [Compound 175]", "> 500 nM"),
    ("Nc1ncccc1-c1nc2ccc(-c3ccccc3)nc2n1-c1ccc(C2CN(C(=O)c3cccc(C(=O)O)c3)C2)cc1 [Compound 72]", "50 to 200 nM"),
    ("Nc1ncccc1-c1nc2ccc(C(F)(F)F)cc2n1-c1ccc(CNC(=O)c2cccc(C(=O)O)c2F)cc1 [Compound 106]", "> 500 nM"),
]

*Q* Fill in: IC50 of Cc1nc(NC(=O)c2ccc(C(=O)O)cc2)ccc1-n1c(-c2cccnc2N)nc2ccc(-c3ccccc3)nc21 [Compound 153] is ___
*A* < 50 nM

*Q* Fill in: IC50 of Nc1ncccc1-c1nc2ccccc2n1-c1ccc(CNC(=O)c2cccc(CC(=O)O)c2)cc1 [Compound 108] is ___
*A* > 500 nM

*Q* Fill in: IC50 of COC(=O)c1ccc([C@@H](C)N2CC(c3ccc(-n4c(-c5cccnc5N)nc5ccc(-c6ccccc6)nc54)cc3)C2)cc1 (single isomer, unassigned) [Compound 157] is ___
*A* > 500 nM

*Q* Fill in: IC50 of C[C@H](c1ccc(C(=O)O)cc1)N1CC(c2ccc(-n3c(-c4cccnc4N)nc4ccc(-c5ccccc5)nc43)cc2)C1 (single isomer, unassigned) [Compound 125] is ___
*A* 50 to 200 nM

*Q* Fill in: IC50 of COC(=O)Cc1cccc(C(=O)NCc2ccc(-n3c(-c4cccnc4N)nc4cccnc43)cc2)c1 [Compound 100] is ___
*A* > 500 nM

*Q* Fill in: IC50 of Nc1ncccc1-c1nc2cc(-c3cccnc3)cnc2n1-c1ccc(CNC(=O)c2ccc(CCC(=O)O)cc2)cc1 [Compound 92] is ___
*A* 200 to 500 nM
